System: Klebsiella pneumoniae DT
Experimental protocol: Antibacterial test (MIC), Klebsiella pneumoniae DT
Assay type: cell-based
Run parameters: medium TSA
Result type: Minimum inhibitory concentration (MIC) (µg/mL)
Report as a plain number; the unit µg/mL is understood.

Example entries and their recorded answers appear below.
{"columns": ["Compound", "Minimum inhibitory concentration (MIC) / µg/mL"],
 "data": [
  ["CCN1CCN(C(=O)NC(C(=O)NC2CN(S(=O)(=O)[O-])C2=O)c2cccs2)C(=O)C1=O.[Na+] (racemic) [Compound E]", 0.78],
  ["CCN1CCN(C(=O)N[C@@H](C(=O)NC2CN(S(=O)(=O)[O-])C2=O)c2cccs2)C(=O)C1=O.[Na+] (stereo partly shown) [Compound F]", 0.2]
]}

# input Which Minimum inhibitory concentration (MIC) reading was recorded for the compound CCCCCCCCN1CCN(C(=O)NC(C(=O)NC2CN(S(=O)(=O)[O-])C2=O)c2cccs2)C(=O)C1=O.[Na+] (stereo not shown) [Compound J] ?
# output 1.56
